Data origin: patent US20220380459A1

# TARGET: T1, V domain of human CD33 (human, UniProt P20138 18-139, limits assumed)
# T1 construct: recombinant, fully glycosylated V domain; also called Human CD33 V domain
# TEST NAME: SPR, Fab captured, 37C;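 further: Anti-CD33 Fabs captured on anti-Fab chip, soluble monomeric CD33 or its domains flowed over at several concentrations, double-referenced data fitted 1:1, Kd taken as koff/kon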
Reported kon values are given for each entry in this list.
# unit: M⁻¹ s⁻¹ | format: bare number

Reference set, count: 4
BINDER	kon, M⁻¹ s⁻¹
ADI-11830 Fab (Fab, V domains shown, Fab fragment; also called Ab9) VH: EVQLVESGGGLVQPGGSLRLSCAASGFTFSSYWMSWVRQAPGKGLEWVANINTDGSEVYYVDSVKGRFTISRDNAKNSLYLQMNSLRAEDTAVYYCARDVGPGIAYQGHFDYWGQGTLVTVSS VL: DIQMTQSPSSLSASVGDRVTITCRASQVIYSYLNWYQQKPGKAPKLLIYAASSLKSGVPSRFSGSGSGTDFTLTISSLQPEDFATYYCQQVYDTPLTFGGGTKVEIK	6.67e+06
ADI-11819 Fab (Fab, V domains shown, Fab fragment; also called Ab8) VH: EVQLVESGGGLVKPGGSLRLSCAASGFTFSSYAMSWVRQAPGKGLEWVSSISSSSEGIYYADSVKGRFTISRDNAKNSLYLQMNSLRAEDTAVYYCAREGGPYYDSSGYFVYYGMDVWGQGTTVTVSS VL: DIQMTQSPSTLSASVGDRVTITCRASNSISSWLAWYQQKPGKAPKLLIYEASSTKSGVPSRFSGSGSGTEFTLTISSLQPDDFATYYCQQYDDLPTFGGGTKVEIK	6.75e+06
ADI-11809 Fab (Fab, V domains shown, Fab fragment; also called Ab6) VH: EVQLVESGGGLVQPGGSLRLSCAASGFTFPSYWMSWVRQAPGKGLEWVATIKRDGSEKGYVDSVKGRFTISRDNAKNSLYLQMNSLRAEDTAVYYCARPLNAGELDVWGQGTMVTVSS VL: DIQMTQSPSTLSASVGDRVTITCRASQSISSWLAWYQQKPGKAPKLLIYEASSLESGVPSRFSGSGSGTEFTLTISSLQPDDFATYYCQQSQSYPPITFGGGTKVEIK	2.6e+06
ADI-11807 Fab (Fab, V domains shown, Fab fragment; also called Ab5; I07) VH: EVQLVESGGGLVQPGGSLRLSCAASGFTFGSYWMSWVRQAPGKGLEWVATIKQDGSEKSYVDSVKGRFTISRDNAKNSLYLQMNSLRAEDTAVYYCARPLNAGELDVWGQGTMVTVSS VL: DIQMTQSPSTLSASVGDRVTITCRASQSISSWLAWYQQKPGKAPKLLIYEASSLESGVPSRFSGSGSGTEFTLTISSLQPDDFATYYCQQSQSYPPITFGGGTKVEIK	3.07e+06

We now examine a further binder.
[in] I am curious: what kon value has been reported for ADI-10164 Fab (Fab, V domains shown, Fab fragment; also called Ab18) VH: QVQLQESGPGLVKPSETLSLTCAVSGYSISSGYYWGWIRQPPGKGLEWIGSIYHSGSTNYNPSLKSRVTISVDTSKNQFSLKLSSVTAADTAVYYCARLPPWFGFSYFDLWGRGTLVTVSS VL: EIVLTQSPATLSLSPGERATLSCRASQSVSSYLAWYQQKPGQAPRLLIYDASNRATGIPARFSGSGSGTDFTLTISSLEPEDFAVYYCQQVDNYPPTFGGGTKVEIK ?
[out] 1.29e+06
